- Test system: saphenous vein of rabbits
- Assay Procedure: Contractile effect on rabbit saphenous vein rings precontracted by depolarizing physiological solution (40 mM potassium)
- Design: species or system rabbit (New Zealand)
- Test Parameters: Oryctolagus cuniculus, precontracted at 40 mM potassium, read-out: ED50 (the source's name)
Mark 1.0 only for EC50 values smaller than 200 nM; exact matches and larger values are 0.0.

# example entries with known answers
O=C1C(=O)c2c(nc3cc(Cl)ccn23)-c2ccccc21 | 1.0
O=C1C(=O)c2c(nc3ccccn23)-c2ccccc21 | 0.0
Cc1ccn2c3c(nc2c1)-c1ccccc1C(=O)C3=O | 0.0
O=C1C(=O)c2c(nc3ncccn23)-c2ccccc21 | 0.0
Cc1ccc2nc3c(n2c1)C(=O)C(=O)c1ccccc1-3 | 1.0

Challenge: Criterion: EC50 strictly below 200 nM. Is it met by O=C1C(=O)c2c(nc3ccc(Cl)cn23)-c2ccccc21 ?
Response given: 1.0

Challenge: Strictly below 200 nM: is that where EC50 of O=C1c2ncccc2C(=O)c2c1nc1ccccn21 sits?
Response given: 1.0
